# Test system: S. epidermidis 433
# method.notes: MIC, hospital methicillin-resistant strains (MRSE)
# measurement.conditions: hospital MRSE strain S. epidermidis 433
property.measured: MIC (µg/mL)
Express it in µg/mL; write the number only.

Give the measured MIC of `O.O=[N+]([O-])c1cc(NC(=S)[N-]c2cccc(C(F)(F)F)c2)ccc1Cl.O=[N+]([O-])c1cc(NC(=S)[N-]c2cccc(C(F)(F)F)c2)ccc1Cl.[Cu+2]` .
2

Give the measured MIC of `FC(F)(F)c1cccc([N-]C(=S)Nc2cccc(Br)c2)c1.FC(F)(F)c1cccc([N-]C(=S)Nc2cccc(Br)c2)c1.[Cu+2]` .
8

Give the measured MIC of `FC(F)(F)c1cccc([N-]C(=S)NCCc2ccccc2)c1.FC(F)(F)c1cccc([N-]C(=S)NCCc2ccccc2)c1.O.[Cu+2]` .
64

Give the measured MIC of `FC(F)(F)c1cccc([N-]C(=S)NCc2ccccc2)c1.FC(F)(F)c1cccc([N-]C(=S)NCc2ccccc2)c1.[Cu+2]` .
64

Give the measured MIC of CC(NC(=S)[N-]c1cccc(C(F)(F)F)c1)c1ccccc1.CC(NC(=S)[N-]c1cccc(C(F)(F)F)c1)c1ccccc1.[Cu+2] (racemic) .
16

====

# Tested on: M. tuberculosis H37Rv
# method.notes: Tuberculostatic activity, Microplate Alamar Blue Assay (MABA)
# Assay type: cell-based, Mycobacterium tuberculosis
# measurement.conditions: M. tuberculosis H37Rv, standard strain, MABA
property.measured: MIC (mg/L)
Express it in mg/L; write the number only.

Give the measured MIC of `FC(F)(F)c1cccc([N-]C(=S)NCc2ccccc2)c1.FC(F)(F)c1cccc([N-]C(=S)NCc2ccccc2)c1.[Cu+2]` .
16

Give the measured MIC of `FC(F)(F)c1cccc([N-]C(=S)NCCc2ccccc2)c1.FC(F)(F)c1cccc([N-]C(=S)NCCc2ccccc2)c1.O.[Cu+2]` .
16

Give the measured MIC of `FC(F)(F)c1cccc([N-]C(=S)Nc2cccc(Br)c2)c1.FC(F)(F)c1cccc([N-]C(=S)Nc2cccc(Br)c2)c1.[Cu+2]` .
4

Give the measured MIC of `O.O=[N+]([O-])c1cc(NC(=S)[N-]c2cccc(C(F)(F)F)c2)ccc1Cl.O=[N+]([O-])c1cc(NC(=S)[N-]c2cccc(C(F)(F)F)c2)ccc1Cl.[Cu+2]` .
4

Give the measured MIC of CC(NC(=S)[N-]c1cccc(C(F)(F)F)c1)c1ccccc1.CC(NC(=S)[N-]c1cccc(C(F)(F)F)c1)c1ccccc1.[Cu+2] (racemic) .
8

====

Please go through the items and note down their Genotoxic activity, inhibition zone diameter, H17.
# Tested on: Bacillus subtilis H17 (rec+)
# measurement.conditions: B. subtilis H17 (rec+); 256 µg per 9 mm disc (NOQ 2 µg per disc)
# Method: DNA-damaging activity of compounds was tested by rec-assay using two genetically modified Bacillus subtilis strains: M45 (rec^−) and H17 (rec^+). Tested compounds were dissolved in DMSO, and 10 µL of each solution was dripped onto sterile cotton discs (Rotilabo) to load 256 µg of a given compound per 9 mm disc. […] After incubation, the growth inhibition zones were measured. […]
Express it in mm; write the number only.

Give the measured Genotoxic activity, inhibition zone diameter, H17 of FC(F)(F)c1cccc([N-]C(=S)NCCc2ccccc2)c1.FC(F)(F)c1cccc([N-]C(=S)NCCc2ccccc2)c1.O.[Cu+2] [Cu1] .
16

Give the measured Genotoxic activity, inhibition zone diameter, H17 of FC(F)(F)c1cccc([N-]C(=S)NCc2ccccc2)c1.FC(F)(F)c1cccc([N-]C(=S)NCc2ccccc2)c1.[Cu+2] [Cu3] .
15

Give the measured Genotoxic activity, inhibition zone diameter, H17 of FC(F)(F)c1cccc([N-]C(=S)Nc2cccc(Br)c2)c1.FC(F)(F)c1cccc([N-]C(=S)Nc2cccc(Br)c2)c1.[Cu+2] [Cu4] .
15

Give the measured Genotoxic activity, inhibition zone diameter, H17 of CC(NC(=S)[N-]c1cccc(C(F)(F)F)c1)c1ccccc1.CC(NC(=S)[N-]c1cccc(C(F)(F)F)c1)c1ccccc1.[Cu+2] (racemic) [Cu2] .
16

Give the measured Genotoxic activity, inhibition zone diameter, H17 of O.O=[N+]([O-])c1cc(NC(=S)[N-]c2cccc(C(F)(F)F)c2)ccc1Cl.O=[N+]([O-])c1cc(NC(=S)[N-]c2cccc(C(F)(F)F)c2)ccc1Cl.[Cu+2] [Cu5] .
18

The values you see were collected from paper PMC9779606.
